- SUBJECT OF TEST: human GlyT-1b (Homo sapiens, UniProt P48067)
- Construct: expressed in transfected cells
- ASSAY SUMMARY: [3H]-Glycine uptake in cells transfected with human GlyT-1b
- Format: cell-based
- STATED CONDITIONS: 6 min pre-incubation, 10 nM 3H-glycine, 15 min, read-out: IC50 GlyT-1b (Inhibition of Glycine Transport by hGlyT-)
pIC50: −log10 of the molar value. Counter-ions that a name gives are not always drawn.
READOUT TYPE: pIC50

Solved cases (5 shown):
C[C@@H](C(=O)O)N(C)CCCC1(c2ccc(Cl)cc2)OCc2cc(Cl)ccc21 (stereo partly shown) [Compound 3l, hydrochloride] = 5.26
CN(CCC1(c2ccc(Cl)cc2)OC(C)(C)c2ccccc21)CC(=O)O (stereo not shown) = 5.46
CN(CCCC1(c2ccc(Cl)cc2)OCc2cc(Br)ccc21)CC(=O)O (stereo not shown) = 5.40
CN(CCCC1(c2ccc(Cl)cc2)CCc2cc(Cl)ccc21)CC(=O)O (stereo not shown) [Compound 3z, hydrochloride] = 5.96
COc1ccc(C2(CCCN(C)CC(=O)O)OCc3cc(C#N)ccc32)cc1 (stereo not shown) [Compound 3v, hydrochloride] = 5.07

(a) Cc1ccc(C2(CCCN(C)CC(=O)O)OCc3ccc(Cl)cc32)cc1 (stereo not shown) [Compound 3n, hydrochloride]
(b) CN(CCC1(c2ccc(Cl)cc2)OCc2cc(-c3cc(Cl)ccc3Cl)ccc21)CC(=O)O (stereo not shown)
Prompt: Would you mind telling me which has the lower recorded pIC50 between a and b ? Record your answer as the label of the chosen record.
Response: a

###

- SUBJECT OF TEST: human GlyT-1b (Homo sapiens, UniProt P48067)
- Sequence (P48067 1-652 isoform P48067-3): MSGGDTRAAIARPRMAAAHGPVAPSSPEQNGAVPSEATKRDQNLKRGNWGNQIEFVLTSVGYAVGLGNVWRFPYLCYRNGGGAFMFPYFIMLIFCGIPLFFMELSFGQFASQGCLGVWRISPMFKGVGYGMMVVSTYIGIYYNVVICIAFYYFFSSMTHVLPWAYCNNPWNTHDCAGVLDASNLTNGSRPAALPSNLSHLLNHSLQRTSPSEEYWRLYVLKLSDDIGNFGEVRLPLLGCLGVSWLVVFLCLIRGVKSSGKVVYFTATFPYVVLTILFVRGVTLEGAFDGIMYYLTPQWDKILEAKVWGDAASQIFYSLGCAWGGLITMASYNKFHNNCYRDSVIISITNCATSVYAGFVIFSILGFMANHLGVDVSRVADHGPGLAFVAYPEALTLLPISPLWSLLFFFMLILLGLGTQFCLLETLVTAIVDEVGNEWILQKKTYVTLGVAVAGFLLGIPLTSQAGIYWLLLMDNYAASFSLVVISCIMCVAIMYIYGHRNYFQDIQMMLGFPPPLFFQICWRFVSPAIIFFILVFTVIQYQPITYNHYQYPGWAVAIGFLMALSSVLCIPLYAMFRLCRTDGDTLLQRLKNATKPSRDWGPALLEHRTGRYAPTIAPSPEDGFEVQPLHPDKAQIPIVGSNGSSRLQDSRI
- ASSAY SUMMARY: [3H]-Glycine uptake in cells transfected with human GlyT-1b
- STATED CONDITIONS: 6 min pre-incubation, 10 nM 3H-glycine, 15 min, read-out: IC50 GlyT-1b (Inhibition of Glycine Transport by hGlyT-)
pIC50: −log10 of the molar value. Counter-ions that a name gives are not always drawn.
READOUT TYPE: pIC50

CN(CCC1(c2ccc(Cl)cc2)OCc2cc(-c3cccs3)ccc21)CC(=O)O (centres unmarked) = 5.92
Cc1cc(C2(CCCN(C)CC(=O)O)OCc3cc(C#N)ccc32)ccc1F (centres unmarked) [Compound 3t, hydrochloride] = 5.24
Cc1ccc(-c2ccc3c(c2)COC3(CCCN(C)CC(=O)O)c2ccc(Cl)cc2)cc1 (centres unmarked) = 5.82
Cc1ccc(-c2ccc3c(c2)COC3(CCN(C)CC(=O)O)c2ccc(Cl)cc2)cc1 (centres unmarked) = 5.66
C[C@@H](C(=O)O)N(C)CCCC1(c2ccc(Cl)cc2)CCc2cc(Cl)ccc21 (some centres unmarked) [Compound 3aa, hydrochloride] = 6.33

(I) Cc1ccccc1-c1ccc2c(c1)COC2(CCN(C)CC(=O)O)c1ccc(Cl)cc1 (centres unmarked)
(II) CN(CCCC1(c2ccc(Cl)cc2)OCc2ccc(Cl)cc21)CC(=O)O (centres unmarked) [Compound 3m, hydrochloride]
Prompt: API: POST /compare with I and II ; response names the item with higher pIC50. Identify your pick by its label.
Response: I
(I: 6.15, II: 5.14)
